viability at 10 µM reference
Tested on: hepatocellular carcinoma cell line Hep3B
experiment description: Growth inhibition of Hep3B cells, 48 hr treatment, Hoechst 33342 nucleus count (GE InCell 2200)
Format: cell-based
conditions: Homo sapiens, Table 5, ratio of number of tumor cells treated with 10 μM compound to non-treated cells

Take a look at these entries with their results.
{"structure smiles string": "CC(C)Oc1ccc(-c2nc(NC(=O)c3ccc([N+](=O)[O-])s3)sc2Oc2ccccc2)cc1", "viability at 10 µM": "29%"}
{"structure smiles string": "CCCCc1ccc(Oc2sc(NC(=O)c3ccc([N+](=O)[O-])s3)nc2-c2ccc(C(C)(C)C)cc2)cc1", "viability at 10 µM": "36%"}

Lab note: measured viability at 10 µM of CNC(=O)c1ccc(-c2nc(NC(=O)c3ccc([N+](=O)[O-])s3)sc2Oc2ccc(F)cc2)cc1 was 68%

The compound listed as CCOc1ccc(-c2nc(NC(=O)c3ccc([N+](=O)[O-])s3)sc2Oc2ccccc2)c(F)c1 shows viability at 10 µM equal to 41%

Per the records, this compound ( CCOc1ccc(-c2nc(NC(=O)c3ccc([N+](=O)[O-])s3)sc2Oc2ccc(F)cc2)cc1 ) has viability at 10 µM equal to 47%

// recorded viability at 10 µM for CCOc1ccc(-c2nc(NC(=O)c3ccc([N+](=O)[O-])s3)sc2Oc2cccc(C(F)(F)F)c2)cc1 : 30%

Input CCCc1ccc(-c2nc(NC(=O)c3ccc([N+](=O)[O-])s3)sc2Oc2ccccc2F)cc1 . Output viability at 10 µM: 33%
